- assayedSystem: Adenosine receptor A3 (Homo sapiens)
- Sequence (P0DMS8 whole entry): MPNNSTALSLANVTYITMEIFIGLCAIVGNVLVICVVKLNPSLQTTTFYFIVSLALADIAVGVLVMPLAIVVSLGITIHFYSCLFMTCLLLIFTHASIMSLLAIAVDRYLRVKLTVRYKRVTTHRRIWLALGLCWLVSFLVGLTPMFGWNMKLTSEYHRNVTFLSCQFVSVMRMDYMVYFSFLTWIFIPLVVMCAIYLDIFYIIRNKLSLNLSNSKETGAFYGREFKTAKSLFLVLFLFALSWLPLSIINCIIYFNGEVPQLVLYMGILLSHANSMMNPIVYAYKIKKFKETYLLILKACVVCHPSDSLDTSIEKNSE
- assaySummary: Displacement of [3H]PSB-11 from human adenosine receptor A3 expressed in CHO cell membranes incubated for 60 mins by radioligand competition assay
- Set-up: species or system Cell membrane
Reported pKi is given for each of the following molecules.
The read-out pKi is expressed as -log10 of concentration in moles per litre.

Example results:
smilesInput: COc1ccc(C(=O)Nc2nc(-c3ccccc3)c(-c3nc4ccccc4c(=O)n3-c3ccc(OC)cc3)s2)cc1
valueObserved: 8.33

smilesInput: COc1ccc(C(=O)Nc2nc(-c3ccccc3)c(-c3nc4ccccc4c(=O)n3-c3ccc(C)cc3)s2)cc1
valueObserved: 7.56

smilesInput: Cc1ccc(-n2c(-c3sc(NC(=O)c4ccccc4)nc3-c3ccccc3)nc3ccccc3c2=O)cc1
valueObserved: 8.04

// lookup pKi for COc1ccc(C(=O)Nc2nc(-c3ccccc3)c(-c3nc4ccccc4c(=O)n3-c3ccccc3)s2)cc1
6.76

Another molecule: COc1ccc(C(=O)Nc2nc(-c3ccccc3)c(C(=O)c3ccccc3)s2)cc1
7.60

Moving on to O=C(Nc1nc(-c2ccccc2)c(-c2nc3ccccc3c(=O)n2-c2ccc(Cl)cc2)s1)c1ccccc1
7.08

Also Cc1ccc(C(=O)c2sc(NC(=O)c3ccco3)nc2-c2ccccc2)cc1 ?
7.37

What about this molecule? O=C(Nc1nc(-c2ccccc2)c(C(=O)c2ccc(F)cc2F)s1)c1ccco1
6.91

Proceed to O=C(Nc1nc(-c2ccccc2)c(C(=O)c2ccc(F)cc2F)s1)c1ccccc1
7.17

Follow-up item: COc1ccc(-n2c(-c3sc(NC(=O)c4ccco4)nc3-c3ccccc3)nc3ccccc3c2=O)cc1
8.19

----------
- assayedSystem: Adenosine receptor A1 (Rattus norvegicus, UniProt P25099)
- Sequence (P25099 whole entry): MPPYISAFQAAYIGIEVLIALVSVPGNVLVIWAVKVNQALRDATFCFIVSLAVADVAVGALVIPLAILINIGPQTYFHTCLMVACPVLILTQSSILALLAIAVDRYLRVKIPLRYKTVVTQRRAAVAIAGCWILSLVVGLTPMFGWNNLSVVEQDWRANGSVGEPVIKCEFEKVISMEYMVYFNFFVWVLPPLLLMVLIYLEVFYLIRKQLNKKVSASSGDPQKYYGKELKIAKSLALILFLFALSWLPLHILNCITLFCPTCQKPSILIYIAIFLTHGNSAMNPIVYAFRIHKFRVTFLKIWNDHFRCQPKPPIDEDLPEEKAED
- assaySummary: Displacement of [3H]CCPA from adenosine receptor A1 in rat brain cortex membranes incubated for 90 mins by radioligand competition assay
- Type: cell membranes, Cell membrane
assayEndpoint: Ki

smilesInput: Cc1ccc(C(=O)c2sc(NC(=O)c3ccco3)nc2-c2ccccc2)cc1
valueObserved: 0.348 nM
--
smilesInput: COc1ccc(C(=O)Nc2nc(-c3ccccc3)c(C(=O)c3ccc(Cl)cc3)s2)cc1
valueObserved: 1.01 nM
--
smilesInput: COc1ccc(C(=O)Nc2nc(-c3ccccc3)c(C(=O)c3ccc(OC)cc3)s2)cc1
valueObserved: 1.77 nM

Field: next molecule
Bench note: what Ki did COc1ccc(C(=O)Nc2nc(-c3ccccc3)c(-c3nc4ccccc4c(=O)n3-c3ccccc3)s2)cc1 show?
> 1000 nM

----------
Here the recorded IC50 is given for each entry.
- assayedSystem: Adenosine receptor A1 (Rattus norvegicus, UniProt P25099)
- assaySummary: Displacement of [3H]DPCPX from rat brain cortical membrane A1AR in presence of 100 uM of GTP by scintillation counting analysis
- Assay type: cell membranes, Cortex, Cell membrane
# number only, unit nM dropped from output

smilesInput: O=C(Nc1nc(-c2ccccc2)c(C(=O)c2ccc(Cl)cc2)s1)c1ccccc1
valueObserved: 0.0981
//
smilesInput: O=C(Nc1nc(-c2ccccc2)c(C(=O)c2ccc(F)cc2F)s1)c1ccccc1
valueObserved: 3.14
//
smilesInput: Cc1ccc(C(=O)c2sc(NC(=O)c3ccco3)nc2-c2ccccc2)cc1
valueObserved: 0.084

Now consider the entry below.
Query: IC50; subject: COc1ccc(C(=O)Nc2nc(-c3ccccc3)c(C(=O)c3ccc(C)cc3)s2)cc1
0.0763
